- Assay Info: protein stability index of a GFP-peptide fusion (GPS, HEK-293T) (PSI 1-6); higher = more stable;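 further: 24-mer peptide tiles fused after GFP, lentivirally expressed, FACS-sorted into six equal bins by GFP/DsRed ratio, decoded by Illumina sequencing, PSI is the read-weighted mean bin number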
- Measurement Setup: treatment: MLN4924 1 uM, 8 h; c terminus: a fixed tail appended
Metric: protein stability index

- EIPKQVKVKKLKNLKTLDSKPGVY [DENND6A]: 3.31
- EERAKAKHLARQLEEKDRVLKKQD [CHCHD3]: 5.42
- ASLKSEAESLKGKLEEERAKLHDV [GNB5]: 5.26
- TGVYPRCLHASQWPVCAACPVRKF [BRF1]: 2.45
- SSTQLNELLLFAVGFIMAGTPMAL [OR3A1]: 3.04
- GHDKCVSWMCTRSGNMLGRHFFTS [WDFY1]: 2.35
- PVYLLLELEDKDGLQSAQPTEGQG [MYBL2]: 3.79
- MVSALRGAPLIRVHSSPVSSPSVS [SPACA3]: 3.08
- MVPISKQPKEKIQAIIESCSRQFP [NOL4L]: 3.38
- ADDESETPEELEEEIPVVICAAAG [GLT8D2]: 5.5
- AEDDHMLIQNEYRNGGSLADAISE [WEE1]: 4.9
- MENKSLESSQTDLKLVAHPRAKSK [ZBED1]: 5.27
- ESDSCQKCEQPFFWNIKQMWDTKT [WDFY1]: 3.19
- YQCPDQMARNPAAIDMFIIGATFT [FBXO3]: 2.51
- NNTGKNLELKFVSSLRRQFEFSVD [TENT5D]: 2.75
- DPGADSEKSTVVEGGEVRFNGKGK [DLX1]: 5.58
- ALSGKYSREFFNRRGELRHITKLK [SRPK2]: 3.28
- ALDYLQNQRIIHRDMKPDNILLDE [STK32A]: 3.47
- SKTFLCIGSSVMAASLVTMGIVNL [SLC2A12]: 3.3
- NPIIYSFRNPDVQSAIWRMLTGRR [OR3A1]: 2.58
- GARLGGFNFVSTPKCSCGQLAAVH [RNF180]: 2.54
